All values here come from patent US20110129459A1.

Target: T1, rhNR10 (recombinant human NR10) (human, UniProt Q8NI17 20-519, limits assumed)
T1 construct: also called IL-31 receptor; IL31RA
T1 sequence: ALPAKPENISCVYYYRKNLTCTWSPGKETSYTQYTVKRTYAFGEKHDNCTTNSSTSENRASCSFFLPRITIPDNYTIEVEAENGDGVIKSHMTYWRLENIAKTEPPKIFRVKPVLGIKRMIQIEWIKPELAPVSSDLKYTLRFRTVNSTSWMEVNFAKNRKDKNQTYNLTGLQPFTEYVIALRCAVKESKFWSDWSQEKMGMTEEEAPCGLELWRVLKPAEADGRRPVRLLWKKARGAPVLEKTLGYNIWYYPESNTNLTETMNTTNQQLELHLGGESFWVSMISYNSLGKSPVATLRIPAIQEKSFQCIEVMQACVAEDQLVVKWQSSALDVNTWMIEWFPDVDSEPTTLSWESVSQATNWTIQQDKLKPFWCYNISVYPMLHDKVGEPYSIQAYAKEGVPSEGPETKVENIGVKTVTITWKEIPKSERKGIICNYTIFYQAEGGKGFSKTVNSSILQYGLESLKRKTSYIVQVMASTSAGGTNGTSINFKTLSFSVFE
Experiment: SPR, Biacore T100; antibody captured on Protein A, rhNR10 as analyte
Method: Kinetic analysis of the antigen-antibody reaction was carried out using Biacore T100 (GE Healthcare Biosciences). The antigen-antibody interaction was measured by immobilizing rec-Protein A (hereinafter Protein A) (ZYMED) onto a sensor chip, capturing an antibody on the immobilized Protein A, and then reacting the antigen as an analyte. Various concentrations of rhNR10 were used as the antigen. […] Then, KD (M) was determined based on the rate constants. […]
Measured koff by item
Respond with the bare value in s⁻¹.

1) Ha103L0 (Ha103-SKSC / L0) (antibody, V domains shown) VH: QVQLVQSGAEVKKPGASVKVSCKASGYTFTGYIINWVRQAPGQGLEWMGLINPYNGGTSYNQKFKGRVTITADESTSTAYMELSSLRSEDTAVYYCARDGYDDGPYTMDYWGQGTLVTVSS VL: DIQMTQSPSSLSASVGDRVTITCRTSENIYSFLAWYQQKPGKAPKLLIYNAKTLAKGVPSRFSGSGSGTDFTLTISSLQPEDFATYYCQHHYESPLTFGGGTKVEIKR    0.00053
2) Ha111L0 (Ha111-SKSC / L0) (antibody, V domains shown) VH: QVQLVQSGAEVKKPGASVKVSCKASGYTFTGYILNWVRQAPGQGLEWMGLINPYNGGTSYNQKFKGRVTITADESTSTAYMELSSLRSEDTAVYYCARDGYDDGPYTMDYWGQGTLVTVSS VL: DIQMTQSPSSLSASVGDRVTITCRTSENIYSFLAWYQQKPGKAPKLLIYNAKTLAKGVPSRFSGSGSGTDFTLTISSLQPEDFATYYCQHHYESPLTFGGGTKVEIKR    0.00056
3) H0La328 (H0-SKSC / La328) (antibody, V domains shown) VH: QVQLVQSGAEVKKPGASVKVSCKASGYTFTGYIMNWVRQAPGQGLEWMGLINPYNGGTSYNQKFKGRVTITADESTSTAYMELSSLRSEDTAVYYCARDGYDDGPYTMDYWGQGTLVTVSS VL: DIQMTQSPSSLSASVGDRVTITCRTSENIYSFLAWYQQKPGKAPKLLIYNAKTLAKGVPSRFSGSGSGTDFTLTISSLQPEDFATYYCQHHYEDPLTFGGGTKVEIKR    0.00052
4) H0La326 (H0-SKSC / La326) (antibody, name in Kabat numbering, V domains shown) VH: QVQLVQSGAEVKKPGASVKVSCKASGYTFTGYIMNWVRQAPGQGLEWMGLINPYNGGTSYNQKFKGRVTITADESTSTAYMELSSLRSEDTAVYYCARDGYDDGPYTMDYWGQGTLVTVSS VL: DIQMTQSPSSLSASVGDRVTITCRTSENIYSFLAWYQQKPGKAPKLLIYNAKTLAKGVPSRFSGSGSGTDFTLTISSLQPEDFATYYCQHHYESPLFFGGGTKVEIKR    0.00052

Can you look up the measured koff of H0La130 (H0-SKSC / La130) (antibody, V domains shown) VH: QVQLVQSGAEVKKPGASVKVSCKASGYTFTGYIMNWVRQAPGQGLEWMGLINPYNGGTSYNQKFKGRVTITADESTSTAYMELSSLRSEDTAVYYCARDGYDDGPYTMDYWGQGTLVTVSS VL: DIQMTQSPSSLSASVGDRVTITCRTSENIYRFVAWYQQKPGKAPKLLIYNAKTLAKGVPSRFSGSGSGTDFTLTISSLQPEDFATYYCQHHYESPLTFGGGTKVEIKR for me?
0.0004
